# method: Oral multi-dose MTD
# settings: mouse, in vivo, mice
measurementLabel: MTD
# number then unit; no other words

Value lookup for MTD; key = CC1=C2C[C@H]3[C@@H](CC[C@@H]4C[C@H](NS(C)(=O)=O)CC[C@@]43C)[C@@H]2CC[C@@]2(C1)O[C@@H]1C[C@H](C)CN[C@H]1[C@H]2C 40 mg/kg/day

* * *

Listed here: items and their measured pEC50.
# systemTested: Hedgehog pathway
# method: C3H10T1/2 osteoblast differentiation assay (alkaline phosphatase readout)
# Format: cell-based, Mouse
# settings: C3H10T1/2 cells, sonic Hedgehog 250 ng/ml, AP activity normalized to total protein; read-out: Differentiation Assay EC50 (approximate EC50 for inhibition)
pEC50: −log10 of the molar value.

[[record]]
structureassmiles = "CC1=C2C[C@H]3[C@@H](CC=C4C[C@@H](OCc5ccccc5)CC[C@@]43C)[C@@H]2CC[C@@]2(C1)O[C@@H]1C[C@H](C)CN(C(=O)OCc3ccccc3)[C@H]1[C@H]2C"
systemtested = "Hedgehog pathway"
experimentalvalue = "< 7.00"


Value lookup for pEC50; key = CC1=C2C[C@H]3[C@@H](CC[C@@H]4CC(=O)CC[C@@]43C)[C@@H]2CC[C@@]2(C1)O[C@@H]1C[C@H](C)CN(CCNCC(=O)c3ccccc3)[C@H]1[C@H]2C > 7.70

Value lookup for pEC50; key = CC1=C2C[C@H]3[C@@H](CCC4=CC(=O)CC[C@@]43C)[C@@H]2CC[C@@]2(C1)O[C@@H]1C[C@H](C)CN(CCN(C)C)[C@H]1[C@H]2C > 7.70
